Source: paper PMC10681709

TGT: T1, mTREX1 truncated (nuclease domain) (Mus musculus, UniProt Q91XB0 1-242)
T1 sequence: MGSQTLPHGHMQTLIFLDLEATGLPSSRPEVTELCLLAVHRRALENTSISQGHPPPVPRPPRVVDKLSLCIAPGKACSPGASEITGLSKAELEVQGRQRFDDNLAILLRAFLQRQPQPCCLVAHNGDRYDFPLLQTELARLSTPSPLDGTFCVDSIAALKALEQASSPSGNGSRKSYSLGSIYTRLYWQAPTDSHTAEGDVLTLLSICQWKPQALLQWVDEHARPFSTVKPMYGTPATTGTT
ASSAY PROTOCOL: fluorescence anisotropy; 20 mM EDTA, no Mg2+; FA: 5 nM FAM nucleic acid, 120 mM NaCl, 20 mM Tris pH 7.0, 20 mM EDTA, room temperature, 30 min; RNase T EMSA: 120 mM NaCl, 50 mM EDTA, 20 mM buffer (truncated)
SETTINGS: protein: recombinant; tags: His-tag; chain copies: 2; label: 5'-FAM on strand 1; blunt
MEASURED PARAMETER: pKd
Conceptually, pKd converts a concentration in mol/L into minus its log10.

Reported pKd for dsDNA20 (dsDNA) DNA 1: ACTGGACAAATACTCCGAGG DNA 2: CCTCGGAGTATTTGTCCAGT : what is it?
6.86
